target: Carbonic anhydrase 5B, mitochondrial (Homo sapiens) (UniProt Q9Y2D0); settings: filed as activator
Sequence (Q9Y2D0 whole entry): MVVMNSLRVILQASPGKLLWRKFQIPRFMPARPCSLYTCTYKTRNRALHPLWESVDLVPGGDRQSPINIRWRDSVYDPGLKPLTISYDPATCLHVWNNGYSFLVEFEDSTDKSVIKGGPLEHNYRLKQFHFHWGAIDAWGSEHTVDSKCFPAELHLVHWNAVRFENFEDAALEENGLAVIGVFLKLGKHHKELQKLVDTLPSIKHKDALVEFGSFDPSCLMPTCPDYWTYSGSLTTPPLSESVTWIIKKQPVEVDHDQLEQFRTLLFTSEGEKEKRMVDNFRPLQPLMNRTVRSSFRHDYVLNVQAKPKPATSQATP
Description: Binding affinity to human carbonic anhydrase 5B assessed as activation constant by phenol red dye based stopped-flow method
QUANTITY_MEASURED: KA
Answer format reminder: number followed by unit.

See these solved cases before continuing.
{"SMILES_TEXT": "N[C@@H](Cc1c[nH]c2ccccc12)C(=O)NCCCCNc1c2c(nc3ccccc13)CCCC2", "QUANTITY_MEASURED": "KA", "OBSERVED_MEASUREMENT": "703 nM"}
{"SMILES_TEXT": "N[C@@H](Cc1c[nH]cn1)C(=O)NCCCCCCNc1c2c(nc3ccccc13)CCCC2", "QUANTITY_MEASURED": "KA", "OBSERVED_MEASUREMENT": "554 nM"}
{"SMILES_TEXT": "CC(C)(C)OC(=O)N[C@@H](Cc1c[nH]c2ccccc12)C(=O)NCCCCCNc1c2c(nc3ccccc13)CCCC2", "QUANTITY_MEASURED": "KA", "OBSERVED_MEASUREMENT": "7150 nM"}
{"SMILES_TEXT": "N[C@@H](Cc1ccccc1)C(=O)NCCCCCNc1c2c(nc3ccccc13)CCCC2", "QUANTITY_MEASURED": "KA", "OBSERVED_MEASUREMENT": "1320 nM"}

input: Tell me KA reported for c1ccc2c(NCCCCCNCCc3c[nH]cn3)c3c(nc2c1)CCCC3
output: 541 nM

----------
IC50, UniProtKB O42275, per-entry values.
Sequence (O42275 whole entry): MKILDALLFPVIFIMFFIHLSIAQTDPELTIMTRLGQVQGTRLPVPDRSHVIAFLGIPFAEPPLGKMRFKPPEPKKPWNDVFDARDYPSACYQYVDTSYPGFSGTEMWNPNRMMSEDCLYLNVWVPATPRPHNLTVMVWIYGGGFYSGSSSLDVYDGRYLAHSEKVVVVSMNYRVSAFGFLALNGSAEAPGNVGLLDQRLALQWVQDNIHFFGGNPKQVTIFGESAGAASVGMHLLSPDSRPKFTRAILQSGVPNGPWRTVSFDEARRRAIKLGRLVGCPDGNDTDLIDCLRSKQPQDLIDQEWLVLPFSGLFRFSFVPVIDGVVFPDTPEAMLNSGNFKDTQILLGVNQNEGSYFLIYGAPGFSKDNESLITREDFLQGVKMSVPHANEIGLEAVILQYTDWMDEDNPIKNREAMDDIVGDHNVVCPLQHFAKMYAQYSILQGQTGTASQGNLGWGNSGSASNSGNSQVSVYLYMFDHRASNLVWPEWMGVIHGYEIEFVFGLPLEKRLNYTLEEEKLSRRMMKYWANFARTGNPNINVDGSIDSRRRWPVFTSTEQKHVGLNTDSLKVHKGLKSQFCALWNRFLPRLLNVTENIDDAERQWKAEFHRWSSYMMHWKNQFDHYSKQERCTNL
One number for each entry, in nM.

{"SMILES_TEXT": "COC(=O)[C@H](Cc1ccccc1)NCCCCCNc1c2c(nc3ccccc13)CCCC2", "OBSERVED_MEASUREMENT": 110}
{"SMILES_TEXT": "N[C@@H](CCCCNC(=O)OCc1ccccc1)C(=O)NCCCNc1c2c(nc3ccccc13)CCCC2", "OBSERVED_MEASUREMENT": 110}
{"SMILES_TEXT": "COC(=O)[C@H](Cc1ccc(OCCCCCCNc2c3c(nc4ccccc24)CCCC3)cc1)NC(=O)OC(C)(C)C", "OBSERVED_MEASUREMENT": 16}
{"SMILES_TEXT": "COC(=O)[C@H](Cc1c[nH]cn1)NCCCCCCNc1c2c(nc3ccccc13)CCCC2", "OBSERVED_MEASUREMENT": 72.1}
{"SMILES_TEXT": "N[C@@H](Cc1c[nH]c2ccccc12)C(=O)NCCCCCNc1c2c(nc3ccccc13)CCCC2", "OBSERVED_MEASUREMENT": 37.8}
{"SMILES_TEXT": "CC(C)(C)OC(=O)N[C@@H](Cc1ccccc1)C(=O)NCCCNc1c2c(nc3ccccc13)CCCC2", "OBSERVED_MEASUREMENT": 202}
{"SMILES_TEXT": "COC(=O)[C@@H](N)Cc1ccc(OCCCCCCNc2c3c(nc4ccccc24)CCCC3)cc1", "OBSERVED_MEASUREMENT": 26.4}
{"SMILES_TEXT": "N[C@@H](Cc1c[nH]cn1)C(=O)NCCCNc1c2c(nc3ccccc13)CCCC2", "OBSERVED_MEASUREMENT": 119}

// batch mode: one IC50 value per listed entry
1. CC(C)(C)OC(=O)N[C@@H](CCCCNC(=O)OCc1ccccc1)C(=O)NCCCCCNc1c2c(nc3ccccc13)CCCC2
2. COC(=O)[C@H](Cc1ccccc1)NCCCCCCNc1c2c(nc3ccccc13)CCCC2
3. CC(C)(C)OC(=O)N[C@@H](CCCCNC(=O)OCc1ccccc1)C(=O)NCCCCNc1c2c(nc3ccccc13)CCCC2
4. COC(=O)[C@H](Cc1ccc(OCCCCCNc2c3c(nc4ccccc24)CCCC3)cc1)NC(=O)OC(C)(C)C
5. N[C@@H](CCCCNC(=O)OCc1ccccc1)C(=O)NCCCCNc1c2c(nc3ccccc13)CCCC2

output:
[299, 21.8, 327, 65.4, 250]

----------
molecular target: Carbonic anhydrase 2 (Homo sapiens); conditions: filed as activator
Description: Binding affinity to human carbonic anhydrase 2 assessed as activation constant by phenol red dye based stopped-flow method
QUANTITY_MEASURED: log10 KA (log10 of the value in nM)
Parameter value (number): base-10 log of KA in nM.

{"SMILES_TEXT": "N[C@@H](Cc1c[nH]c2ccccc12)C(=O)NCCCNc1c2c(nc3ccccc13)CCCC2", "log10 KA": 2.92}
{"SMILES_TEXT": "N[C@@H](CCCCNC(=O)OCc1ccccc1)C(=O)NCCCCNc1c2c(nc3ccccc13)CCCC2", "log10 KA": 3.28}
{"SMILES_TEXT": "COC(=O)[C@H](Cc1c[nH]c2ccccc12)NCCCCCNc1c2c(nc3ccccc13)CCCC2", "log10 KA": 2.92}
{"SMILES_TEXT": "CC(C)(C)OC(=O)N[C@@H](Cc1cn(C(=O)OC(C)(C)C)cn1)C(=O)NCCCCCNc1c2c(nc3ccccc13)CCCC2", "log10 KA": 4.05}
{"SMILES_TEXT": "N[C@@H](Cc1c[nH]c2ccccc12)C(=O)NCCCCCCNc1c2c(nc3ccccc13)CCCC2", "log10 KA": 2.73}

// batch mode: one log10 KA value per listed entry
1. COC(=O)[C@H](Cc1c[nH]c2ccccc12)NCCCCCCNc1c2c(nc3ccccc13)CCCC2
2. N[C@@H](Cc1c[nH]cn1)C(=O)NCCCNc1c2c(nc3ccccc13)CCCC2
3. N[C@@H](Cc1ccccc1)C(=O)NCCCCCCNc1c2c(nc3ccccc13)CCCC2
4. N[C@@H](Cc1ccccc1)C(=O)NCCCNc1c2c(nc3ccccc13)CCCC2
5. N[C@@H](CCCCNC(=O)OCc1ccccc1)C(=O)NCCCNc1c2c(nc3ccccc13)CCCC2
6. N[C@@H](Cc1c[nH]cn1)C(=O)NCCCCCCNc1c2c(nc3ccccc13)CCCC2
7. c1ccc2c(NCCCCCNCCc3c[nH]cn3)c3c(nc2c1)CCCC3
8. N[C@@H](Cc1ccccc1)C(=O)NCCCCNc1c2c(nc3ccccc13)CCCC2

output:
[2.80, 2.58, 2.20, 2.86, 3.08, 2.45, 2.46, 2.75]

----------
Assign KA to each entry below.
target: Carbonic anhydrase 7 (Homo sapiens); conditions: filed as activator
Description: Binding affinity to human carbonic anhydrase 7 assessed as activation constant by phenol red dye based stopped-flow method
Give bare numbers, in nM.

{"SMILES_TEXT": "N[C@@H](Cc1c[nH]c2ccccc12)C(=O)NCCCCNc1c2c(nc3ccccc13)CCCC2", "KA (nM)": 289}
{"SMILES_TEXT": "CC(C)(C)OC(=O)N[C@@H](Cc1c[nH]c2ccccc12)C(=O)NCCCNc1c2c(nc3ccccc13)CCCC2", "KA (nM)": 1920}
{"SMILES_TEXT": "NCCc1c[nH]cn1", "KA (nM)": 37000}
{"SMILES_TEXT": "N[C@@H](Cc1ccccc1)C(=O)NCCCNc1c2c(nc3ccccc13)CCCC2", "KA (nM)": 491}

// batch mode: one KA value per listed entry
1. c1ccc2c(NCCCCCNCCc3c[nH]cn3)c3c(nc2c1)CCCC3
2. N[C@@H](CCCCNC(=O)OCc1ccccc1)C(=O)NCCCCNc1c2c(nc3ccccc13)CCCC2
3. CC(C)(C)OC(=O)N[C@@H](Cc1c[nH]c2ccccc12)C(=O)NCCCCCNc1c2c(nc3ccccc13)CCCC2
4. COC(=O)[C@H](Cc1c[nH]cn1)NCCCCCNc1c2c(nc3ccccc13)CCCC2
5. N[C@@H](Cc1c[nH]cn1)C(=O)NCCCCCNc1c2c(nc3ccccc13)CCCC2
6. N[C@@H](Cc1c[nH]c2ccccc12)C(=O)NCCCCCNc1c2c(nc3ccccc13)CCCC2
7. COC(=O)[C@H](Cc1ccccc1)NCCCCCNc1c2c(nc3ccccc13)CCCC2

output:
439
975
1020
211
96.4
105
535

----------
Assign KA to each entry below.
target: Carbonic anhydrase 7 (Homo sapiens); details: filed as activator
Give bare numbers, in nM.

{"SMILES_TEXT": "N[C@@H](CCCCNC(=O)OCc1ccccc1)C(=O)NCCCCCNc1c2c(nc3ccccc13)CCCC2", "KA / nM": 2730}
{"SMILES_TEXT": "COC(=O)[C@@H](N)Cc1ccc(OCCCCCCNc2c3c(nc4ccccc24)CCCC3)cc1", "KA / nM": 185}
{"SMILES_TEXT": "N[C@@H](CCCCNC(=O)OCc1ccccc1)C(=O)NCCCNc1c2c(nc3ccccc13)CCCC2", "KA / nM": 3080}

// batch mode: one KA value per listed entry
1. N[C@@H](Cc1ccccc1)C(=O)NCCCCCCNc1c2c(nc3ccccc13)CCCC2
2. COC(=O)[C@H](Cc1ccccc1)NCCCCCCNc1c2c(nc3ccccc13)CCCC2

output:
1: 160; 2: 397

----------
biological target: Carbonic anhydrase 5B, mitochondrial (Homo sapiens) (UniProt Q9Y2D0); conditions: filed as activator
satisfied if KA is below 1000 nM. not satisfied if not; exact matches included in not satisfied.

Reference set (5 entries):
{"SMILES_TEXT": "N[C@@H](Cc1c[nH]c2ccccc12)C(=O)NCCCCCNc1c2c(nc3ccccc13)CCCC2", "TEST_TARGET": "Carbonic anhydrase 5B, mitochondrial (Homo sapiens) (UniProt Q9Y2D0)", "GROUP_LABEL": "satisfied"}
{"SMILES_TEXT": "N[C@@H](CCCCNC(=O)OCc1ccccc1)C(=O)NCCCCCNc1c2c(nc3ccccc13)CCCC2", "TEST_TARGET": "Carbonic anhydrase 5B, mitochondrial (Homo sapiens) (UniProt Q9Y2D0)", "GROUP_LABEL": "not satisfied"}
{"SMILES_TEXT": "NCCc1c[nH]cn1", "TEST_TARGET": "Carbonic anhydrase 5B, mitochondrial (Homo sapiens) (UniProt Q9Y2D0)", "GROUP_LABEL": "not satisfied"}
{"SMILES_TEXT": "N[C@@H](Cc1ccccc1)C(=O)NCCCCNc1c2c(nc3ccccc13)CCCC2", "TEST_TARGET": "Carbonic anhydrase 5B, mitochondrial (Homo sapiens) (UniProt Q9Y2D0)", "GROUP_LABEL": "not satisfied"}
{"SMILES_TEXT": "COC(=O)[C@H](Cc1c[nH]c2ccccc12)NCCCCCNc1c2c(nc3ccccc13)CCCC2", "TEST_TARGET": "Carbonic anhydrase 5B, mitochondrial (Homo sapiens) (UniProt Q9Y2D0)", "GROUP_LABEL": "satisfied"}

input: Hello, is KA of the following molecule strictly smaller than 1000 nM? N[C@@H](Cc1c[nH]cn1)C(=O)NCCCNc1c2c(nc3ccccc13)CCCC2
output: not satisfied

input: Hello, is KA of the following molecule strictly smaller than 1000 nM? c1ccc2c(NCCCCCCNCCc3c[nH]cn3)c3c(nc2c1)CCCC3
output: satisfied

input: Hello, is KA of the following molecule strictly smaller than 1000 nM? COC(=O)[C@H](CCCCNC(=O)OCc1ccccc1)NCCCCCCNc1c2c(nc3ccccc13)CCCC2
output: not satisfied

input: Hello, is KA of the following molecule strictly smaller than 1000 nM? COC(=O)[C@H](Cc1ccccc1)NCCCCCCNc1c2c(nc3ccccc13)CCCC2
output: not satisfied
